target under test: T1, SNAP25 Peptide 3 (PEP3; only a fragment of it is a SNAP25 subsequence) (Homo sapiens, UniProt P60880 SEQ:1-33)
T1 chain: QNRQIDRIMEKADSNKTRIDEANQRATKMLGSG
test name: ELONA
Consider the following binders; for each one, report its binding signal.
Numbers only, in ELISA signal.

# binder, measure unit, meas value
rows = [
    ("PEP 3.14 (ssDNA, W indole, X amine, Y phenol modified dU [19, 34 (phenol dU), 38 (indole dU)]) DNA: TTTTTAACACGACACCACTGTGCCCACCACAGTTCACTGAAGTGGGCCCATG", "ELISA signal", 114),
    ("PEP 3.13 (ssDNA, W indole, X amine, Y phenol modified dU [15, 19, 46 (phenol dU), 38 (indole dU), 43 (amine dU)]) DNA: TTTTTAACACGACATCACTGTGCACAGCGAACTGCGTTGGCGTCGTGCCATG", "ELISA signal", 115),
    ("PEP 3.18 (ssDNA, W indole, X amine, Y phenol modified dU [19, 36 (indole dU), 20, 46 (phenol dU), 27, 43 (amine dU)]) DNA: TTTTTAACACGACACGGGTTCGCACATCACAGAGATACACTGTCGTGCCATG", "ELISA signal", 105),
    ("PEP 3.09 (ssDNA, W indole, X amine, Y phenol modified dU [14X,19Y,23W,27X]) DNA: TTTTTAAGCCCACTGCACTGTGTACATCGAACTGCACCAACGTGGGCCCATG", "ELISA signal", 196),
]

Look up binding signal for the entries below, preserving their order.
1. PEP 3.16 (ssDNA, W indole, X amine, Y phenol modified dU [15, 19, 34 (phenol dU)]) DNA: TTTTTAAGCCCACATCACTGTGCGAGCCACAGATCAGGCAGGTGGGCCCATG
2. PEP 3.15 (ssDNA, W indole, X amine, Y phenol modified dU [14, 25, 27, 43 (amine dU), 19, 46 (phenol dU), 36 (indole dU)]) DNA: TTTTTAACACGACTGCACTGTGAATCTCGAACGCATCGGGAGTCGTGCCATG

A:
1: 111; 2: 114
